The reported numbers originate from BigSolDB 2.1.

- particulars: in ethanol, 293.15 K
outcome measure: solubility (mole fraction)

In: Could you tell me which solubility (mole fraction) is on file for Cc1n[nH]c(=S)s1 ?
Out: 0.0156

* * *

- particulars: in ethanol, 298.15 K
outcome measure: solubility (mole fraction)

In: Looking for the measured solubility (mole fraction) of Cc1n[nH]c(=S)s1 , can you help?
Out: 0.0184

* * *

- particulars: in n-butyl acetate, 293.15 K
outcome measure: solubility (mole fraction)
Keep it simple and answer with nothing but the number.

In: // query solubility (mole fraction) value for entry Cc1n[nH]c(=S)s1
Out: 0.0172

* * *

- particulars: in n-propyl acetate, 303.15 K
outcome measure: solubility (mole fraction)
Write the value as a bare number.

In: Recorded solubility (mole fraction) for Cc1n[nH]c(=S)s1 , please?
Out: 0.0237
